method: BBB permeation by PAMPA method
Assay type: in vitro ADME
particulars: read-out: Experimental Pe
Reported Effective permeability (Pe) values are given for each entry in this list.
The figure you give is taken to be in ×10⁻⁶ cm/s; do not add the unit.

Some compounds with known Effective permeability (Pe) results, for comparison:
O=C(C=Cc1ccc([N+](=O)[O-])cc1)Nc1ccc(Cl)cc1 [NEA2]; 13.5
O=C(C=Cc1ccc([N+](=O)[O-])cc1)Nc1ccc(F)cc1 [NEA3]; 16.4
O=C(C=Cc1ccc([N+](=O)[O-])cc1)NC1CCCCC1 [NEA4, N-Cyclohexyl-3-(4-nitrophenyl)acrylamide]; 15.5
O=C(C=Cc1ccc([N+](=O)[O-])cc1)Nc1ccccc1 [NEA1, 3-(4-Nitrophenyl)-N-phenylacrylamide]; 14.4
CCn1cc(C(=O)O)c(=O)c2cc(F)c(N3CCNC(C)C3)c(F)c21 (stereo not shown) [Lomefloxacin, reference compound]; 1.31

Exercise: Which Effective permeability (Pe) reading was recorded for the compound Cc1ccccc1NC(=O)/C=C/c1ccc([N+](=O)[O-])cc1 [NEA5, 3-(4-Nitrophenyl)-N-(O-tolyl)acrylamide] ?
Solution: 15.5

Exercise: Any idea what Effective permeability (Pe) was measured for NCCc1ccc(O)c(O)c1 [Dopamine, reference compound] ?
Solution: 0.26
